The reported numbers originate from paper PMC3351156.

# target.or.system: T1, MDC1^2–133 (unphosphorylated) (UniProt Q14676 2-133)
# T1 sequence (looked up): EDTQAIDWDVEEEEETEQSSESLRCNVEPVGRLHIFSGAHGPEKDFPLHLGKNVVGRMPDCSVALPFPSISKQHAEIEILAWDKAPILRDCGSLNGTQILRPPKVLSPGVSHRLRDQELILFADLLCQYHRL
# measurement.notes: AUC
Non-standard residues stand in square brackets, D forms with d. No end group written: not given here. pT = C[C@@H](OP(=O)(O)O)[C@H](N)C(=O)O
assay.endpoint: Kd (µM)

INSERT INTO assay_data (binder, assay_endpoint, recorded_result) VALUES
  ('MED[pT]QAID [phosphopeptide MED(pT)QAID (pT4-8P)]', 'Kd', 20);
